protocol: Cytotoxicity against MDCK cells assessed as minimum compound concentration required to causes microscopically detectable alteration of normal cell morphology
Format: cell-based, Canis lupus familiaris
settings: dog
compounds and their reported MCC
The figure you give is taken to be in nM; do not add the unit.

Here are 3 compounds together with their reported answers.
- smiles data: "CCOC(=O)c1c(C)nc(NCCNc2ccnc3cc(Cl)ccc23)nc1-c1ccccc1"
  reported measurement: 800
- smiles data: "CCOC(=O)c1c(C)nc(NCCCNc2ccnc3cc(Cl)ccc23)nc1-c1ccccc1"
  reported measurement: 800
- smiles data: "Cc1nc(NCCCNc2ccnc3cc(Cl)ccc23)nc(-c2cccc([N+](=O)[O-])c2)c1C(=O)OC(C)C"
  reported measurement: 800

**Q:** Quick one: MCC of Cc1nc(NCCCCNc2ccnc3cc(Cl)ccc23)nc(-c2ccccc2[N+](=O)[O-])c1C(=O)OC(C)C ?
**A:** 4000

**Q:** Any idea what its MCC is? The compound is CCOC(=O)c1c(C)nc(NCCCCNc2ccnc3cc(Cl)ccc23)nc1C
**A:** 4000

**Q:** Given the compound CCOC(=O)c1c(C)nc(NCCCNc2ccnc3cc(Cl)ccc23)nc1C , what is its reported MCC?
**A:** 20000

**Q:** Give its MCC value. Item: CCOC(=O)c1c(C)nc(NCCCCNc2ccnc3cc(Cl)ccc23)nc1-c1ccccc1
**A:** 800

---

protocol: Cytotoxicity against MDCK cells assessed as cell viability by colorimetric formazan-based MTS assay
Set-up: species or system Canis lupus familiaris
settings: dog, MDCK cells
metric name: CC50

**Q:** Item under review: NC(=O)c1ncn([C@@H]2O[C@H](CO)[C@@H](O)[C@H]2O)n1 . Reported CC50?
**A:** > 100 µM

---

Test system: Punta Toro virus
protocol: Antiviral activity against Punta Toro virus infected in african green monkey Vero cells assessed as inhibition of virus-induced cytopathogenicity after 4 days
Format: functional, organism-based
settings: 96 h
metric name: EC50

Solved entries:
- compound: "CCOC(=O)c1c(C)nc(NCCCNc2ccnc3cc(Cl)ccc23)nc1C"
  EC50: "> 100 µM"
- compound: "CCOC(=O)c1c(C)nc(NCCCNc2ccnc3cc(Cl)ccc23)nc1-c1ccccc1"
  EC50: "> 20 µM"

**Q:** What measured EC50 goes with Nc1ncnc2c1ncn2C[C@H](O)CO [(S)-DHPA] ?
**A:** > 250 µM

**Q:** Please give the measured EC50 for this compound: Cc1nc(NCCNc2ccnc3cc(Cl)ccc23)nc(-c2ccccc2[N+](=O)[O-])c1C(=O)OC(C)C
**A:** > 20 µM

**Q:** For Cc1nc(NCCCCNc2ccnc3cc(Cl)ccc23)nc(-c2ccccc2[N+](=O)[O-])c1C(=O)OC(C)C , what is its reported EC50?
**A:** > 20 µM

---

Tested on: Punta Toro virus
protocol: Antiviral activity against Punta Toro virus infected in african green monkey Vero cells assessed as inhibition of virus-induced cytopathogenicity after 4 days
Format: functional, organism-based
settings: 96 h
metric name: EC50

**Q:** EC50 for CCOC(=O)c1c(C)nc(NCCCCNc2ccnc3cc(Cl)ccc23)nc1C ?
**A:** > 20 µM

**Q:** Entry under review: Cc1nc(NCCCNc2ccnc3cc(Cl)ccc23)nc(-c2cccc([N+](=O)[O-])c2)c1C(=O)OC(C)C . Reported EC50?
**A:** > 20 µM

**Q:** # input compound: CCOC(=O)c1c(C)nc(NCCNc2ccnc3cc(Cl)ccc23)nc1-c1ccccc1 ; wanted: its EC50
**A:** > 4 µM

**Q:** Param item = CCOC(=O)c1c(C)nc(NCCCCNc2ccnc3cc(Cl)ccc23)nc1-c1ccccc1 ; retrieve measured EC50.
**A:** > 100 µM
